This collection of values is drawn from paper PMC9407234.

# assay-target: XPA M32-4/70-2 (UniProt P23025 1-273, R30E;K31E;R32E;R34E;E106K;F112A)
# Sequence (P23025 whole entry R30E/K31E/R32E/R34E/E106K/F112A): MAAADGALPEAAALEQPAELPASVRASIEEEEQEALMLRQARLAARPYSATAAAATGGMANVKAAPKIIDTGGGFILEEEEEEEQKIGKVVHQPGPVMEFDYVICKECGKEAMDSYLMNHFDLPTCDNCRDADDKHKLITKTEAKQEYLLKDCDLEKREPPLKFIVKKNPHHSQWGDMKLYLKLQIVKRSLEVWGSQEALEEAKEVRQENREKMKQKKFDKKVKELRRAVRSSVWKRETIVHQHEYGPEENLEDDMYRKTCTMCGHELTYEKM
# measurement-notes: MST
pKd: −log10 of the molar value.
assay-metric: pKd

- binder: "TTTTGCGGCCGCTTTTGCGGCCGC (structured_DNA) [4-nt hairpin NER junction mimic]"
  data-value: 5.00
